Just for reference, patent US10137212B2 is where these values come from.

Assay: in vitro stability of ^89Zr complexes in 0.1 M sodium phosphate buffer pH 6.5
Assay type: physicochemical
Conditions: 4 Days; 0.1 M sodium phosphate buffer pH 6.5, 10% DMSO, 37° C.
# Lookup of reported Fraction of intact complex keyed by entry

- compound: "CC(=O)N(O)CCCCCNC(=O)CCC(=O)N(O)CCCCCNC(=O)CCC(=O)N(O)CCCCCN [DFB, desferrioxamine B, reference compound]"
  Fraction of intact complex: "98%"
- compound: "O=C1CCCCCN(O)C(=O)CCCCCN(O)C(=O)CCCCCN(O)C(=O)CCCCCN1O"
  Fraction of intact complex: "46%"
- compound: "O=C1CCCCCCCN(O)C(=O)CCCCCCCN(O)C(=O)CCCCCCCN(O)C(=O)CCCCCCCN1O"
  Fraction of intact complex: "99%"
- compound: "CCCCCC(=O)N(O)CCCCCCC(=O)N(O)CCCCCCC(=O)N(O)CCCCCCC(=O)N(O)CCC"
  Fraction of intact complex: "94%"
- compound: "CCCCC(=O)N(O)CCCCCC(=O)N(O)CCCCCC(=O)N(O)CCCCCC(=O)N(O)CCC"
  Fraction of intact complex: "89%"
- compound: "CCCCCCC(=O)N(O)CCCCCCCC(=O)N(O)CCCCCCCC(=O)N(O)CCCCCCCC(=O)N(O)CCC"
  Fraction of intact complex: "98%"
- compound: "O=C1CCCCCCN(O)C(=O)CCCCCCN(O)C(=O)CCCCCCN(O)C(=O)CCCCCCN1O"
  Fraction of intact complex: "79%"

###

Experiment: complexation of ligands with ^89Zr, yield by ITLC-SG
Assay type: physicochemical
Details: 80° C. (time not given); 7.5 nmol ligand, pH 7

- compound: "CCCCCC(=O)N(O)CCCCCCC(=O)N(O)CCCCCCC(=O)N(O)CCCCCCC(=O)N(O)CCC [Ligand L6]"
  complexation yield of ^89Zr: ">99%"
- compound: "CCCCCCC(=O)N(O)CCCCCCCC(=O)N(O)CCCCCCCC(=O)N(O)CCCCCCCC(=O)N(O)CCC [Ligand L7]"
  complexation yield of ^89Zr: ">99%"
- compound: "CC(=O)N(O)CCCCCNC(=O)CCC(=O)N(O)CCCCCNC(=O)CCC(=O)N(O)CCCCCN [DFB, desferrioxamine B, reference compound]"
  complexation yield of ^89Zr: ">99%"
- compound: "CCCCC(=O)N(O)CCCCCC(=O)N(O)CCCCCC(=O)N(O)CCCCCC(=O)N(O)CCC [Ligand L5]"
  complexation yield of ^89Zr: "87.3%"

###

Assay: complexation of ligands with ^89Zr, yield by ITLC-SG
Assay type: physicochemical
Details: 20° C., 120 min; 7.5 nmol ligand, pH 7
# Lookup of reported complexation yield of ^89Zr keyed by entry
measure name: complexation yield of ^89Zr (%)

- compound: "O=C1CCCCCCN(O)C(=O)CCCCCCN(O)C(=O)CCCCCCN(O)C(=O)CCCCCCN1O"
  reading unit: "%"
  inequality sign: "="
  quantitative result: 79
- compound: "CC(=O)N(O)CCCCCNC(=O)CCC(=O)N(O)CCCCCNC(=O)CCC(=O)N(O)CCCCCN [DFB, desferrioxamine B, reference compound]"
  reading unit: "%"
  inequality sign: ">"
  quantitative result: 99
- compound: "O=C1CCCCCN(O)C(=O)CCCCCN(O)C(=O)CCCCCN(O)C(=O)CCCCCN1O"
  reading unit: "%"
  inequality sign: "="
  quantitative result: 22
- compound: "CCCCCCC(=O)N(O)CCCCCCCC(=O)N(O)CCCCCCCC(=O)N(O)CCCCCCCC(=O)N(O)CCC"
  reading unit: "%"
  inequality sign: ">"
  quantitative result: 99
- compound: "O=C1CCCCCCCN(O)C(=O)CCCCCCCN(O)C(=O)CCCCCCCN(O)C(=O)CCCCCCCN1O"
  reading unit: "%"
  inequality sign: ">"
  quantitative result: 99
- compound: "CCCCCC(=O)N(O)CCCCCCC(=O)N(O)CCCCCCC(=O)N(O)CCCCCCC(=O)N(O)CCC"
  reading unit: "%"
  inequality sign: "="
  quantitative result: 95
- compound: "CCCCC(=O)N(O)CCCCCC(=O)N(O)CCCCCC(=O)N(O)CCCCCC(=O)N(O)CCC"
  reading unit: "%"
  inequality sign: "="
  quantitative result: 71
